What pest or weed control at 70 g/ha was measured for each of the following?
system: test plant species in Direct Seeded Rice; test: Postemergence herbicidal activity in direct seeded rice (Table 13); type: in vivo; conditions: post-emergence, 504 h; BRAPP: broadleaf signalgrass, Brachiaria platyphylla; 70 g ai/ha; read-out: Visual Growth Reduction (%) 21 Days After Application BRAPP

COC(=O)c1nc(-c2ccc(Br)cc2)c(Cl)c(N)c1Cl :: 30 to 44%

Hi there! I need pest or weed control at 70 g/ha for each item below, if you can.
1. COC(=O)c1nc(-c2ccc(Br)c(F)c2F)nc(N)c1OC
2. Nc1c(F)c(-c2ccc(Cl)c(F)c2)nc(C(=O)O)c1Cl
3. Nc1c(Cl)c(C(=O)O)nc(-c2ccc(C(F)(F)F)c(F)c2)c1Cl
4. Nc1cc(-c2ccc(Br)cc2F)nc(C(=O)O)c1Cl
5. COc1c(N)nc(-c2cc(F)c(Br)cc2F)nc1C(=O)O

Result:
85 to 94%
95 to 100%
95 to 100%
95 to 100%
85 to 94%

----------
Hi there, I'd appreciate the recorded pest or weed control at 140 g/ha for every entry that follows.
tested on: HORSS: barley, including spring and winter (Hordeum vulgare); assay: Post-emergent Test III, herbicidal activity in wheat and barley; type: in vivo; conditions: Hordeum vulgare, post-emergence, 504 h; 140 g ai/ha; read-out: Visual Growth Reduction (%) 21 Days After Application HORSS

COC(=O)c1nc(-c2ccc(OC(F)F)cc2)c(F)c(N)c1Cl [Compound 85] :: 60 to 74%
COC(=O)c1nc(-c2ccc(Br)c(F)c2F)cc(N)c1Cl [Compound 114] :: 30 to 44%

Take each entry in turn and give its pest or weed control at 140 g/ha.
1. Nc1cc(-c2ccc(Br)c(F)c2F)nc(C(=O)O)c1Cl [Compound 91]
2. COC(=O)c1nc(-c2ccc(Br)cc2)c(F)c(N)c1Cl [Compound 138]

Result:
85 to 94%
95 to 100%

----------
Could you please report measured pest or weed control at 70 g/ha for the items listed next?
test system: Key Grass and Sedge Weeds as well as Grass Crops; experiment: Post-emergent Test II herbicidal activity (Table 6); type: in vivo; settings: post-emergence, 336 h, CYPES: yellow nutsedge (Cyperus esculentus), 70 g ai/ha, read-out: Visual Growth Reduction (%) 14 Days After Application, CYPES

COC(=O)c1nc(-c2ccc(OC(F)F)cc2)nc(N)c1OC :: 0 to 29%
COC(=O)c1nc(-c2ccc(I)cc2F)nc(N)c1OC :: 95 to 100%

Query: Key Grass and Sedge Weeds as well as Grass Crops / pest or weed control at 70 g/ha / `Nc1c(F)c(-c2ccc(Br)cc2F)nc(C(=O)O)c1Cl` : value?
Result: 95 to 100%

----------
tested on: KCHSC: kochia (Kochia scoparia); assay: Post-emergent Test III, herbicidal activity in wheat and barley; format: in vivo; conditions: Bassia scoparia, post-emergence, 504 h; 35 g ai/ha; 21 days after application; read-out: Visual Gorowth Reduction (%) 21 days After Application KCHSC
experimentalReadout: pest or weed control at 35 g/ha

COC(=O)c1nc(-c2ccc(Br)c(F)c2F)nc(N)c1OC [Compound 122] :: 85 to 94%
Nc1c(F)c(-c2cc(F)c(I)cc2F)nc(C(=O)O)c1Cl [Compound 69] :: 85 to 94%
COC(=O)c1nc(-c2ccc(I)c(F)c2F)c(F)c(N)c1Cl [Compound 99] :: 75 to 84%

Query molecule follows.
Query: Fill in: pest or weed control at 35 g/ha of COC(=O)c1nc(-c2ccc(Br)cc2F)c(F)c(N)c1Cl [Compound 52] is ___
Result: 75 to 84%
